RUN_DESCRIPTION: MTT relative viability, PhTERT-SEAP (hTERT-BJ1) cells
STUDY_CONDITIONS: human, hTERT-BJ1 cells, stable PhTERT-SEAP reporter clone
PROPERTY_NAME: viability at 48 h, 2.3 µM (%)
Give bare numbers, in %.

O=C(CCCl)Nc1ccc(NC(=O)CCCl)c2c1C(=O)c1ccccc1C2=O: 102

So for CC(Cl)C(=O)Nc1ccc(NC(=O)C(C)Cl)c2c1C(=O)c1ccccc1C2=O (centres unmarked) , the logged viability at 48 h, 2.3 µM turned out to be 94

---

RUN_DESCRIPTION: MTT relative viability, PhTERT-SEAP (hTERT-BJ1) cells
STUDY_CONDITIONS: human
PROPERTY_NAME: viability at 48 h, 2.6 µM
Write the figure, then the unit, nothing else.

get_value(item= CCCC(=O)Oc1cccc2c1C(=O)c1cccc(OC(=O)CCC)c1C2=O , readout=viability at 48 h, 2.6 µM) returns 109%

---

Tested on: transcriptional activity of hTERT
RUN_DESCRIPTION: SEAP reporter assay of hTERT expression, PhTERT-SEAP (hTERT-BJ1)
Type: cell-based, human
STUDY_CONDITIONS: 207 μM, PhTERT-SEAP (hTERT-BJ1)
PROPERTY_NAME: Relative SEAP activity (%)
The answer should read as a number with its unit following.

# example entries with known answers
O=C(Nc1ccc(NC(=O)c2ccc(F)cc2)c2c1C(=O)c1ccccc1C2=O)c1ccc(F)cc1 [VI30]: 100 ± 14.5%
O=C(Nc1ccc(NC(=O)c2ccccc2F)c2c1C(=O)c1ccccc1C2=O)c1ccccc1F [VI10]: 79 ± 7.4%
O=C(Nc1ccc(NC(=O)c2cccc(F)c2)c2c1C(=O)c1ccccc1C2=O)c1cccc(F)c1 [VI12]: 95 ± 13.9%

Bench note, transcriptional activity of hTERT: entry Cc1cc(C(=O)Nc2ccc(NC(=O)c3cc(C)oc3C)c3c2C(=O)c2ccccc2C3=O)c(C)o1 [VI26] , its Relative SEAP activity (%) = 81 ± 16.1%

---

RUN_DESCRIPTION: MTT relative viability, PhTERT-SEAP (H1299) cells
STUDY_CONDITIONS: human
So I've got a bunch of compounds here, and I need their viability at 48 h, 2.2 µM values.
Answers are plain numbers, in %.

A selection of reference data follows.
O=C1c2cccc(SCCc3ccccc3)c2C(=O)c2cccc(SCCc3ccccc3)c21: 93
O=C(Oc1cccc2c1C(=O)c1cccc(OC(=O)c3ccccc3)c1C2=O)c1ccccc1: 99
Nc1ccccc1Sc1cccc2c1C(=O)c1cccc(Sc3ccccc3N)c1C2=O: 94
COc1ccc(CSc2cccc3c2C(=O)c2cccc(SCc4ccc(OC)cc4)c2C3=O)cc1: 89
O=C1c2cccc(SCc3ccccc3)c2C(=O)c2cccc(SCc3ccccc3)c21: 83

// for each compound in input: emit viability at 48 h, 2.2 µM
1. O=C1c2cccc(NCCc3ccccc3)c2C(=O)c2cccc(NCCc3ccccc3)c21
2. Nc1ccc(Sc2cccc3c2C(=O)c2cccc(Sc4ccc(N)cc4)c2C3=O)cc1
3. Nc1cccc(Sc2cccc3c2C(=O)c2cccc(Sc4cccc(N)c4)c2C3=O)c1

Response given:
1: 94; 2: 103; 3: 92

---

RUN_DESCRIPTION: MTT relative viability, PhTERT-SEAP (H1299) cells
STUDY_CONDITIONS: human
PROPERTY_NAME: viability at 48 h, 2.4 µM (%)
Answers are plain numbers, in %.

O=C1c2cccc(SCC(O)CO)c2C(=O)c2cccc(SCC(O)CO)c21 (centres unmarked): 102

Here is another molecule to look at.
For reference, reported viability at 48 h, 2.4 µM for CC(C)(C)C(=O)Oc1cccc2c1C(=O)c1cccc(OC(=O)C(C)(C)C)c1C2=O stands at 106
